# System: U-251
# procedure_text: NCI tumour cell line growth inhibition, 48 h
The source made the active and inactive calls. Rule as the data show it: active = GI50 up to about 1.1 µM and inactive = higher.
Outcomes: class 1 for active, class 0 for inactive

molecule="COC(=O)c1c(C)ccc2c(O)c3c(cc12)C(=O)c1c2c(cc(O)c1C3=O)C1(C)OC(C)(O2)C(O)C(N(C)C)C1O (stereo not given)" category="class 1"
molecule=CSc1ccc(/C=C2\N=C(c3ccccc3)N(/N=C/c3cc4cc(C)ccc4nc3Cl)C2=O)cc1 category="class 0"
molecule=N#C/C(C(=O)Nc1ccccc1)=C(/N)N1CCCCC1 category="class 0"
molecule=C#Cc1c(C)c(/C=C/C(C)=C\C(=O)OC)n(C)c1C category="class 0"
molecule=Nc1nc(Cl)cc(NCCCCCCCCCCCCNc2cc(Cl)nc(N)n2)n1 category="class 1"
